# System: Staphylococcus aureus
# Assay setup: Staphylococcus aureus infection in mice; two doses, administered subcutaneously
Recorded ED50 by entry
Field format: number, assumed mg/kg/2, no unit text.

{"Compound": "CCCCc1ccc(CNC2(C)CC(OC3C(Oc4c5cc6cc4Oc4ccc(cc4Cl)C(O)C4NC(=O)C(NC(=O)C6NC(=O)C(CC(N)=O)NC(=O)C(NC(=O)C(CC(C)C)NC)C(O)c6ccc(c(Cl)c6)O5)c5ccc(O)c(c5)-c5c(O)cc(O)cc5C(C(=O)O)NC4=O)OC(CO)C(O)C3O)OC(C)C2O)cc1 (stereo not drawn)", "Experimental readout": "ED50", "Numeric readout": 0.74}

Okay, now this compound:
Query: ED50; subject: CCN(CC)c1ccc(CNC2(C)CC(OC3C(Oc4c5cc6cc4Oc4ccc(cc4Cl)C(O)C4NC(=O)C(NC(=O)C6NC(=O)C(CC(N)=O)NC(=O)C(NC(=O)C(CC(C)C)NC)C(O)c6ccc(c(Cl)c6)O5)c5ccc(O)c(c5)-c5c(O)cc(O)cc5C(C(=O)O)NC4=O)OC(CO)C(O)C3O)OC(C)C2O)cc1 (stereo not drawn)
1.1

----------
# System: Staphylococcus aureus
# Assay setup: Staphylococcus aureus infection in mice; two doses, administered subcutaneously
Experimental readout: ED50 (mg/kg/2)
Field format: number, assumed mg/kg/2, no unit text.

Query: ED50; subject: CNC(CC(C)C)C(=O)NC1C(=O)NC(CC(N)=O)C(=O)NC2C(=O)NC3C(=O)NC(C(=O)NC(C(=O)O)c4cc(O)cc(O)c4-c4cc3ccc4O)C(O)c3ccc(c(Cl)c3)Oc3cc2cc(c3OC2OC(CO)C(O)C(O)C2OC2CC(C)(NCc3ccc(O)cc3)C(O)C(C)O2)Oc2ccc(cc2Cl)C1O (centres unmarked) [Example 105, N^van --( -p-hydroxybenzyl)vancomycin]
0.98

----------
# Tested on: Haemophilus influenzae C.L.
# Experimental details: MIC, standard agar-dilution assay
# Assay type: cell-based
Experimental readout: MIC (µg/mL)
Field format: number, assumed µg/mL, no unit text.

Lab request: please report MIC under test system Haemophilus influenzae C.L. for CCCNC1(C)CC(OC2C(Oc3c4cc5cc3Oc3ccc(cc3Cl)C(O)C3NC(=O)C(NC(=O)C5NC(=O)C(CC(N)=O)NC(=O)C(NC(=O)C(CC(C)C)NC)C(O)c5ccc(c(Cl)c5)O4)c4ccc(O)c(c4)-c4c(O)cc(O)cc4C(C(=O)O)NC3=O)OC(CO)C(O)C2O)OC(C)C1O (centres unmarked)
128

----------
# Tested on: Staphylococcus epidermidis EPI1
# Assay type: cell-based
# Assay setup: agar dilution
Experimental readout: MIC (µg/mL)
Field format: number, assumed µg/mL, no unit text.

{"Molecule": "CCCCOc1ccc(CNC2(C)CC(OC3C(Oc4c5cc6cc4Oc4ccc(cc4Cl)C(O)C4NC(=O)C(NC(=O)C6NC(=O)C(CC(N)=O)NC(=O)C(NC(=O)C(CC(C)C)NC)C(O)c6ccc(c(Cl)c6)O5)c5ccc(O)c(c5)-c5c(O)cc(O)cc5C(C(=O)O)NC4=O)OC(CO)C(O)C3O)OC(C)C2O)cc1 (stereo not drawn)", "Unit info": "µg/mL", "MIC": 0.25}
{"Molecule": "CCCCCCCCCNC1(C)CC(OC2C(Oc3c4cc5cc3Oc3ccc(cc3Cl)C(O)C(NC(=O)C(CC(C)C)N(C)CCCCCCCCC)C(=O)NC(CC(N)=O)C(=O)NC5C(=O)NC3C(=O)NC(C(=O)NC(C(=O)O)c5cc(O)cc(O)c5-c5cc3ccc5O)C(O)c3ccc(c(Cl)c3)O4)OC(CO)C(O)C2O)OC(C)C1O (stereo not drawn)", "Unit info": "µg/mL", "MIC": 4}

Query: MIC; subject: CCCCCCCCc1ccc(CNC2(C)CC(OC3C(Oc4c5cc6cc4Oc4ccc(cc4Cl)C(O)C4NC(=O)C(NC(=O)C6NC(=O)C(CC(N)=O)NC(=O)C(NC(=O)C(CC(C)C)NC)C(O)c6ccc(c(Cl)c6)O5)c5ccc(O)c(c5)-c5c(O)cc(O)cc5C(C(=O)O)NC4=O)OC(CO)C(O)C3O)OC(C)C2O)cc1 (stereo not drawn)
2

Query: MIC; subject: CCCCCCCNC1(C)CC(OC2C(Oc3c4cc5cc3Oc3ccc(cc3Cl)C(O)C3NC(=O)C(NC(=O)C5NC(=O)C(CC(N)=O)NC(=O)C(NC(=O)C(CC(C)C)NC)C(O)c5ccc(c(Cl)c5)O4)c4ccc(O)c(c4)-c4c(O)cc(O)cc4C(C(=O)O)NC3=O)OC(CO)C(O)C2O)OC(C)C1O (stereo not drawn)
2

Query: MIC; subject: CNC(CC(C)C)C(=O)NC1C(=O)NC(CC(N)=O)C(=O)NC2C(=O)NC3C(=O)NC(C(=O)NC(C(=O)O)c4cc(O)cc(O)c4-c4cc3ccc4O)C(O)c3ccc(c(Cl)c3)Oc3cc2cc(c3OC2OC(CO)C(O)C(O)C2OC2CC(C)(NCc3ccc(Br)cc3)C(O)C(C)O2)Oc2ccc(cc2Cl)C1O (stereo not drawn)
1

Query: MIC; subject: CCCCCCCCCNC1(C)CC(OC2C(Oc3c4cc5cc3Oc3ccc(cc3Cl)C(O)C3NC(=O)C(NC(=O)C5NC(=O)C(CC(N)=O)NC(=O)C(NC(=O)C(CC(C)C)NC)C(O)c5ccc(c(Cl)c5)O4)c4ccc(O)c(c4)-c4c(O)cc(O)cc4C(C(=O)O)NC3=O)OC(CO)C(O)C2O)OC(C)C1O (stereo not drawn)
0.5
